Measured log10 EC50, listed per entry for reference.
study-target: human GALR2 (Homo sapiens)
Construct: host or cells: HEK293 cells stably expressing Gαqi
Sequence (O43603 whole entry): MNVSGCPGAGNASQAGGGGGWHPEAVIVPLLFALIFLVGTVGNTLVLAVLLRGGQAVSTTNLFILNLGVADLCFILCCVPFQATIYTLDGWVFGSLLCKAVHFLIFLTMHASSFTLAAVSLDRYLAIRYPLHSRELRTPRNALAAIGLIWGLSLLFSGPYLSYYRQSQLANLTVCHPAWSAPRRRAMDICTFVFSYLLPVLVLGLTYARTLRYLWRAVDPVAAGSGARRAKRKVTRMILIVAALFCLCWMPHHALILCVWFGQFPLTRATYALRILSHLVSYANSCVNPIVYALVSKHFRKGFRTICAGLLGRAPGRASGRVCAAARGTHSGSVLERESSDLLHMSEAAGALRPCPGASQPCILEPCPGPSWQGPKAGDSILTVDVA
protocol-notes: SRE-luc reporter assay, GALR2;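 also: luciferase activity read in cell lysates after exposure to rising peptide concentrations, EC50 being the agonist level giving half-maximal stimulation from a sigmoidal nonlinear regression fit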
Type: cell-based
reported-conditions: HEK293-Gqi cells transfected with SRE-luc and human GALR2; 6 h ligand treatment; mean ± S.E. of at least three independent experiments; NM = not measurable; read-out: GALR2 EC50
Where a SMILES comes first, the peptide text is derived from it. [ ]: non-standard residue; d: D form. pGlu = O=C1CC[C@@H](C(=O)O)N1
Heads up: the numbers are on a log10 scale; they represent EC50 in nM.

molecule	study-target	result-value
CSCC[C@H](NC(=O)[C@H](C)NC(=O)[C@H](CCC(N)=O)NC(=O)[C@@H]1CCCN1C(=O)[C@@H](NC(=O)[C@H](Cc1c[nH]c2ccccc12)NC(=O)[C@@H]1CCC(=O)N1)[C@@H](C)O)C(=O)N[C@@H](CC(C)C)C(=O)N[C@@H](Cc1ccc(O)cc1)C(=O)N[C@@H](CC(C)C)C(=O)N[C@@H](CCCCN)C(=O)NCC(=O)N[C@@H](C)C(=O)N[C@@H](CCC(N)=O)C(N)=O [pQ1] ([pGlu]WTPQAMLYLKGAQ-NH2)	human GALR2 (Homo sapiens)	1.54
CSCC[C@H](NC(=O)[C@H](C)NC(=O)[C@H](CCC(N)=O)NC(=O)[C@@H]1CCCN1C(=O)[C@@H](NC(=O)[C@H](Cc1c[nH]c2ccccc12)NC(=O)[C@@H](N)CC(N)=O)[C@@H](C)O)C(=O)N[C@@H](CC(C)C)C(=O)N[C@@H](Cc1ccc(O)cc1)C(=O)N[C@@H](CC(C)C)C(=O)N[C@@H](CCCCN)C(=O)NCC(=O)N[C@@H](C)C(=O)N[C@@H](CCC(N)=O)C(N)=O [WT, spexin, reference compound]	human GALR2 (Homo sapiens)	1.66
CSCC[C@H](NC(=O)[C@H](C)NC(=O)[C@H](CCC(N)=O)NC(=O)[C@@H]1CCCN1C(=O)[C@@H](NC(=O)[C@H](Cc1c[nH]c2ccccc12)NC(=O)[C@H](CC(N)=O)NC(=O)OCC1c2ccccc2-c2ccccc21)[C@@H](C)O)C(=O)N[C@@H](CC(C)C)C(=O)N[C@@H](Cc1ccc(O)cc1)C(=O)N[C@@H](CC(C)C)C(=O)N[C@@H](CCCCN)C(=O)NCC(=O)N[C@@H](C)C(=O)N[C@@H](CCC(N)=O)C(N)=O	human GALR2 (Homo sapiens)	1.89

Check human GALR2 (Homo sapiens) data and give log10 EC50 for CSCC[C@H](NC(=O)[C@H](C)NC(=O)[C@H](CCC(N)=O)NC(=O)[C@@H](C)NC(=O)[C@@H](NC(=O)[C@H](Cc1c[nH]c2ccccc12)NC(=O)[C@@H](N)CC(N)=O)[C@@H](C)O)C(=O)N[C@@H](CC(C)C)C(=O)N[C@@H](Cc1ccc(O)cc1)C(=O)N[C@@H](CC(C)C)C(=O)N[C@@H](CCCCN)C(=O)NCC(=O)N[C@@H](C)C(=O)N[C@@H](CCC(N)=O)C(N)=O [dA4] (H-NWT[dA]QAMLYLKGAQ-NH2) . 1.99

Check human GALR2 (Homo sapiens) data and give log10 EC50 for CSCC[C@H](NC(=O)[C@H](C)NC(=O)[C@H](CCC(N)=O)NC(=O)[C@@H]1CCCN1C(=O)[C@@H](NC(=O)[C@H](Cc1c[nH]c2ccccc12)NC(=O)[C@@H](N)CC(N)=O)[C@@H](C)O)C(=O)N[C@@H](CC(C)C)C(=O)N[C@@H](Cc1ccc(O)cc1)C(=O)N[C@@H](CC(C)C)C(=O)N[C@@H](CCCCN)C(=O)N[C@H](C)C(=O)N[C@@H](C)C(=O)N[C@@H](CCC(N)=O)C(N)=O [dA12] (H-NWTPQAMLYLK[dA]AQ-NH2) . 3.09

Where do these numbers come from? They come from paper PMC4764904.
